Examples of compounds with documented pIC50 follow.
test system: IL-12p70 (the complex of IL-12p35 and p40); test: IL-12p70 production inhibition in macrophages derived from mouse abdomen (IFN-γ/SAC stimulation, ELISA); assay type: cell-based; conditions: Macrophage; mouse (Balb/c) abdominal macrophages, 100 ng/mL mouse IFN-γ + 0.05% SAC, overnight; TFA salts tested where prepared as such; read-out: IL-12p70-Inhibitory Activity IC50
Expect pIC50 as a plain number equal to -log10 of the molar concentration.

>  <compound>
Cc1ccccc1/C=N/Nc1cc(N2CCOCC2)n2nc(-c3ccccc3)cc2n1

>  <pIC50>
6.38

$$$$
>  <compound>
Cc1[nH]c2ccc(/C=N/Nc3cc(N4CCOCC4)n4nc(-c5cnccn5)cc4n3)cc2c1C

>  <pIC50>
6.77

$$$$
>  <compound>
Cc1cccc(/C=N/Nc2cc(N3CC4COCC4C3)n3nc(-c4ccncc4)cc3n2)c1 (centres unmarked)

>  <pIC50>
6.52

$$$$
>  <compound>
C(=N\Nc1cc(N2CCOCC2)n2nc(-c3ccncc3)cc2n1)/c1c[nH]c2ccccc12

>  <pIC50>
8.49

$$$$

Record lookup: for IL-12p70 (the complex of IL-12p35 and p40), what pIC50 belongs to `C(=N\Nc1cc(N2CCOCC2)n2ncc(-c3ccccn3)c2n1)/c1c[nH]c2ccccc12` ?
6.38

Request: pIC50, test system IL-12p70 (the complex of IL-12p35 and p40), entry `Cc1cccc(/C=N/Nc2cc(N3CCOCC3)n3nccc3n2)c1`
6.85

Write down the reported pIC50 of `Cc1ccc(-c2cc3nc(N/N=C/c4cccc(C)c4)cc(N4CCOCC4)n3n2)cc1` , test system: IL-12p70 (the complex of IL-12p35 and p40).
7.46

----------
tested on: IL-12p70 (the complex of IL-12p35 and p40); test: IL-12p70 production inhibition in macrophages derived from mouse abdomen (IFN-γ/SAC stimulation, ELISA); format: cell-based; conditions: Macrophage; mouse (Balb/c) abdominal macrophages, 100 ng/mL mouse IFN-γ + 0.05% SAC, overnight; TFA salts tested where prepared as such; read-out: IL-12p70-Inhibitory Activity IC50
This section presents molecules with their documented IC50 values.

>  <chemical_string>
CC(/C=N/Nc1cc(N2CCOCC2)n2nc(-c3ccccc3)cc2n1)=C\c1ccccc1

>  <assayed_target>
IL-12p70 (the complex of IL-12p35 and p40)

>  <IC50>
320 nM

$$$$
>  <chemical_string>
Cc1cccc(CNNc2cc(N3CCOCC3)n3nc(-c4ccccc4)cc3n2)c1

>  <assayed_target>
IL-12p70 (the complex of IL-12p35 and p40)

>  <IC50>
24 nM

$$$$
>  <chemical_string>
Cc1cccc(/C=N/Nc2cc(N3CCOCC3)n3nc(-c4cccs4)cc3n2)c1

>  <assayed_target>
IL-12p70 (the complex of IL-12p35 and p40)

>  <IC50>
11 nM

$$$$
>  <chemical_string>
C(=N\Nc1cc(N2CCOCC2)n2nc(-c3ccncc3)cc2n1)/c1cc2ccccc2s1

>  <assayed_target>
IL-12p70 (the complex of IL-12p35 and p40)

>  <IC50>
110 nM

$$$$
>  <chemical_string>
Cc1cccc(/C=N/Nc2cc(N3CCOCC3)n3nc(N4CCCCC4)cc3n2)c1

>  <assayed_target>
IL-12p70 (the complex of IL-12p35 and p40)

>  <IC50>
360 nM

$$$$

Tell me the measured IC50 of `Cc1[nH]c2ccccc2c1/C=N/Nc1cc(N2CCOCC2)n2nc(-c3ccccc3)cc2n1` , please.
440 nM

Data request, read-out IC50, for `Cc1cccc(/C=N/Nc2cc(N3CCOCC3)n3nc(N4CCOCC4)cc3n2)c1`
160 nM

Would you mind telling me what IC50 value was observed for `Cc1cccc(/C=N/Nc2cc(N3CCOCC3)n3nc(-c4ccc(N5CCOCC5)cc4)cc3n2)c1` ?
4 nM

----------
test system: IL-12p70 (the complex of IL-12p35 and p40); assay: IL-12p70 production inhibition in macrophages derived from mouse abdomen (IFN-γ/SAC stimulation, ELISA); type: cell-based; details: Macrophage; mouse (Balb/c) abdominal macrophages, 100 ng/mL mouse IFN-γ + 0.05% SAC, overnight; TFA salts tested where prepared as such; read-out: IL-12p70-Inhibitory Activity IC50
Overview of reported pIC50 across a group of compounds:
pIC50 here: minus log base 10 of the concentration, concentration in moles per litre.

The examples below pair each entry with its known result.
>  <compound>
CCOC(=O)c1cc2nc(N/N=C/c3cccc(C)c3)cc(N3CCOCC3)n2n1 [Compound 81]

>  <pIC50>
7.26

$$$$
>  <compound>
C(=N\Nc1cc(N2CCOCC2)n2nc(-c3cnccn3)cc2n1)/c1c[nH]c2ccccc12 [Compound 93]

>  <pIC50>
8.19

$$$$
>  <compound>
C(=N\Nc1cc(N2CCOCC2)n2nc(-c3ccnnc3)cc2n1)/c1c[nH]c2ccccc12 [Compound 97]

>  <pIC50>
8.08

$$$$
>  <compound>
C(=N\Nc1cc(N2CCOCC2)n2nc(-c3ccccn3)cc2n1)/c1c[nH]c2ccccc12 [Compound 36]

>  <pIC50>
8.15

$$$$

I am curious: what pIC50 value has been reported for Cc1cccc(/C=N/Nc2cc(N3CCOCC3)n3nc(C)cc3n2)c1 [Compound 79] ?
6.66

# input compound: Cc1cccc(/C=N/Nc2cc(N3CCOCC3)n3nc(-c4ccccn4)cc3n2)c1 [Compound 20] ; wanted: its pIC50
8.10

// pIC50 lookup, key: Cc1cccc(/C=N/Nc2cc(N3CCOCC3)n3nc(-c4ccccc4C)cc3n2)c1 [Compound 14]
7.42

Item Nc1cccc(/C=N/Nc2cc(N3CCOCC3)n3nc(-c4ccccc4)cc3n2)c1 [Compound 140] has what recorded pIC50?
6.77

I would be grateful if you could share the reported pIC50 for Cc1cccc(/C=N/Nc2cc(N3CCOCC3)n3nc(OCCOc4ccccc4)cc3n2)c1 [Compound 37] .
6.96

Look up pIC50: C(=N\Nc1cc(N2CCOCC2)n2nc(-c3ccncc3)cc2n1)/c1ccnc2ccccc12 [Compound 122]
8.25

----------
The entries below are paired with their reported IC50.
tested on: IL-12p70 (the complex of IL-12p35 and p40); assay: IL-12p70 production inhibition in macrophages derived from mouse abdomen (IFN-γ/SAC stimulation, ELISA); format: cell-based; conditions: Macrophage; mouse (Balb/c) abdominal macrophages, 100 ng/mL mouse IFN-γ + 0.05% SAC, overnight; TFA salts tested where prepared as such; read-out: IL-12p70-Inhibitory Activity IC50
Please answer in the form of a number followed by its unit of measurement.

Solved cases (4 shown):
>  <chemical_string>
Cc1cccc(/C=N/Nc2cc(N3CCOCC3)n3nc(-c4ccc(N5CCOCC5)nc4)cc3n2)c1

>  <readout>
IC50

>  <result>
3.2 nM

$$$$
>  <chemical_string>
C(=N\Nc1cc(N2CCOCC2)n2nc(-c3ccccc3)cc2n1)/c1ccccc1

>  <readout>
IC50

>  <result>
113 nM

$$$$
>  <chemical_string>
C(=N\Nc1cc(N2CCOCC2)n2nc(-c3ccncc3)cc2n1)/c1ccc2cc[nH]c2c1

>  <readout>
IC50

>  <result>
56 nM

$$$$
>  <chemical_string>
Cc1nc2sccn2c1/C=N/Nc1cc(N2CCOCC2)n2nc(-c3ccccc3)cc2n1

>  <readout>
IC50

>  <result>
290 nM

$$$$

What measured IC50 goes with `CN(Cc1ccccc1)Nc1cc(N2CCOCC2)n2nc(-c3ccccc3)cc2n1` ?
330 nM

Sample `Cc1cc2nc(N/N=C/c3c[nH]c4ccccc34)cc(N3CCOCC3)n2n1` — what was its IC50?
160 nM

So what does the record say about IC50 for `C(=N\Nc1cc(N2CCOCC2)n2nc(-c3ccccc3)cc2n1)/c1cccc2[nH]ccc12` ?
190 nM

Param item = `Cc1cccc(/C=N/Nc2cc(N3CCOCC3)n3nc(-c4cccc(Cl)c4)cc3n2)c1` ; retrieve measured IC50.
17 nM

----------
system: IL-12p70 (the complex of IL-12p35 and p40); experiment: IL-12p70 production inhibition in whole blood of mouse (IFN-γ/SAC stimulation, ELISA); assay type: cell-based; conditions: mouse (Balb/c) whole blood, EDTA, 100 ng/mL mouse IFN-γ + 1.25% SAC, overnight; TFA salts tested where prepared as such
Hi! Could you tag entries with IC50 below 0.8 µM as class 1, and those at or above as class 0? Much appreciated.

Example entries and their recorded answers appear below.
>  <compound>
Cc1cccc(/C=N/Nc2cc(N3CC4C[C@H]3CO4)n3nc(-c4ccncc4)cc3n2)c1 [Compound 121]

>  <class_name>
class 0

$$$$
>  <compound>
C(=N\Nc1cc(N2CCOCC2)n2nc(-c3ccncc3)cc2n1)/c1cc2ccccc2o1 [Compound 96]

>  <class_name>
class 0

$$$$
>  <compound>
Cc1cccc(/C=N/Nc2cc(N3CCOCC3)n3nc(-c4ccnnc4)cc3n2)c1 [Compound 94]

>  <class_name>
class 0

$$$$
>  <compound>
Cc1cccc(/C=N/Nc2cc(N3CCOCC3)n3nc(-c4ccncc4)cc3n2)c1 [Compound 83]

>  <class_name>
class 0

$$$$
>  <compound>
Cc1cccc(/C=N/Nc2cc(N3CCOCC3)n3nc(-c4ccncn4)cc3n2)c1 [Compound 119]

>  <class_name>
class 0

$$$$

Item C(=N\Nc1cc(N2CCOCC2)n2nc(-c3ccncc3)cc2n1)/c1c[nH]c2ncccc12 [Compound 126] : IC50 beneath 0.8 µM, strictly?
class 1
